Data provenance: paper PMC4737155

- experimentalTarget: SaTrm10 (Sulfolobus acidocaldarius, UniProt Q4J894, D220N)
- Sequence (Q4J894 whole entry D220N): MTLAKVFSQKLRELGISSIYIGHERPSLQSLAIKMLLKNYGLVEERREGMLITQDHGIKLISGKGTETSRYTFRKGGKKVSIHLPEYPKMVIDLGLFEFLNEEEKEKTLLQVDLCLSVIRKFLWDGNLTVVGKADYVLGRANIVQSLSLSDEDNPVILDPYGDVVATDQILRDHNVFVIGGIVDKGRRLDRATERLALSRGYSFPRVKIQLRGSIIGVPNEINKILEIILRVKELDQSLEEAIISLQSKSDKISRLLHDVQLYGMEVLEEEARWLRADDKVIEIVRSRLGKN
- protocolDetails: biochemical
pKd: −log10 of the molar value.
parameterMeasured: pKd

>>> print(df.to_string())
                                   molecule  parametermeasured  numericresult
0  C[S+](CC[C@H](N)C(=O)O)C[C@H]1O[C@@H](n2cnc3c(N)ncnc32)[C@H](O)[C@@H]1O (stereo partly shown) [S-adenosyl methionine]                pKd           4.33

###

- experimentalTarget: SaTrm10 (Sulfolobus acidocaldarius, UniProt Q4J894, D184N)
- Sequence (Q4J894 whole entry D184N): as the sequence (Q4J894 whole entry D220N) above, with D184N, N220D counted along it
- protocolDetails: biochemical
pKd: −log10 of the molar value.
parameterMeasured: pKd

                                   compound  numericresult
0  C[S+](CC[C@H](N)C(=O)O)C[C@H]1O[C@@H](n2cnc3c(N)ncnc32)[C@H](O)[C@@H]1O (stereo partly shown) [S-adenosyl methionine]           4.55
